Biological target: UniProt P14061
Sequence (P14061 whole entry): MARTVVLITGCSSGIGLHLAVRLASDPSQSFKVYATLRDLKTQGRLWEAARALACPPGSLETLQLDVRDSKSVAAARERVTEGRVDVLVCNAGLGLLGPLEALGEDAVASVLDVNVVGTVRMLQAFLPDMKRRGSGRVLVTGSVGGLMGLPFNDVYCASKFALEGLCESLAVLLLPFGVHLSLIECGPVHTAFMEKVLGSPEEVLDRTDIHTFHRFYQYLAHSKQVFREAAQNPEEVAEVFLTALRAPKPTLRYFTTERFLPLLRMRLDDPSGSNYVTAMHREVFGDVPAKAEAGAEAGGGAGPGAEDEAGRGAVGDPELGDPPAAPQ
Assay: Inhibition of human 17beta-HSD1 expressed in human T47D cells using [3H]E1 as substrate incubated for 1 hr followed by substrate addition measured after 40 mins in presence of E1 by HPLC analysis
Type: cell-based
Just so you know, the groups by IC50 go like this: low range (below 50 nM), mid range (50 nM to below 90 nM), high range (90 nM or more)

For the record Cc1cc(-c2ccc(C(=O)N(C)c3ccc(OS(N)(=O)=O)cc3)o2)cc(C)c1O , report the class its IC50 corresponds to.
high range

Hi there! Could you help me figure out the category for Cc1cc(OS(N)(=O)=O)ccc1N(C)C(=O)c1ccc(-c2cc(C)c(O)c(C)c2)o1 please?
low range

Class? Entry: Cc1cc(-c2ccc(C(=O)N(C)c3c(C)cccc3OS(N)(=O)=O)o2)cc(C)c1O
high range

Looking at Cc1cc(-c2ccc(C(=O)N(C)c3ccc(OS(N)(=O)=O)c(F)c3)o2)cc(C)c1O , which class would you pick?
high range

Could you place Cc1cc(-c2ccc(C(=O)N(C)c3cccc(OS(N)(=O)=O)c3C)o2)cc(C)c1O in its proper category? Many thanks.
mid range

Quick check: band for Cc1cc(-c2ccc(C(=O)N(C)c3cccc(OS(N)(=O)=O)c3)o2)cc(C)c1O
mid range

# bin label for Cc1ccc(OS(N)(=O)=O)cc1N(C)C(=O)c1ccc(-c2cc(C)c(O)c(C)c2)o1
low range

Please classify: Cc1ccccc1N(C)C(=O)c1ccc(-c2cc(C)c(O)c(C)c2)o1
low range

# bin label for Cc1cc(OS(N)(=O)=O)c(Cl)cc1N(C)C(=O)c1ccc(-c2cc(C)c(O)c(C)c2)o1
mid range
